# Method notes: compound fluorescence in toxin protease inhibitor counterscreen, primary screen, artefact control for toxin protease inhibitor project, biochemical, multiplex microsphere, HTS (AID 624483)
# Condition summary: compound autofluorescence counterscreen, microsphere flow cytometry; stronger effect = higher value
Out of some 360,000 compounds screened, about 11,000 (3.1%) were called active. Roughly 2% stayed inconclusive and do not appear here. The full list was thinned out, with actives kept by preference.
Output Satisfied for fluorescence intensity not less than 4000; output Not satisfied otherwise.

>  <Compound>
O=C1Nc2c(Br)cc(Br)cc2C1(O)N1CCOCC1 (configuration not stated)

>  <Class name>
Satisfied

$$$$
>  <Compound>
CCc1nc2c(OCCc3cccc(OC)c3)cccn2c1N(C)C(=O)c1ccc(C)cc1

>  <Class name>
Not satisfied

$$$$
>  <Compound>
CCOc1cc(S(=O)(=O)NC2CC(C)(C)NC(C)(C)C2)ccc1F

>  <Class name>
Satisfied

$$$$
>  <Compound>
Cc1cc2oc(=O)cc(CN(C)Cc3ccccc3)c2cc1Cl

>  <Class name>
Satisfied

$$$$
>  <Compound>
Clc1ccc(-c2cccc3nccn23)cc1

>  <Class name>
Not satisfied

$$$$
>  <Compound>
O=S(=O)(NCc1cccnc1)c1ccc(Br)s1

>  <Class name>
Satisfied

$$$$
>  <Compound>
C=CCNCCCCOc1ccccc1

>  <Class name>
Not satisfied

$$$$
>  <Compound>
Nc1nnc(SCn2nnc3ccccc3c2=O)s1

>  <Class name>
Satisfied

$$$$
>  <Compound>
CCOC(=O)Cc1ncccc1C(=O)Nc1ccc(OC)cc1

>  <Class name>
Not satisfied

$$$$
>  <Compound>
O=c1c2ccccc2nnn1CSc1nnnn1-c1ccccc1

>  <Class name>
Satisfied

$$$$
>  <Compound>
COc1cccc(-c2nc3ccc(N4CCN(C)CC4)cc3[nH]2)c1

>  <Class name>
Not satisfied

$$$$
>  <Compound>
Cc1nc2c(OCc3cccc(Cl)c3)cccn2c1N(C)CC1CC1

>  <Class name>
Not satisfied

$$$$
>  <Compound>
O=C(NCC1CCCO1)/C(=C/c1ccc(Cl)cc1)NC(=O)c1ccccc1 (configuration not stated)

>  <Class name>
Not satisfied

$$$$
>  <Compound>
COc1cccc(-c2nc3nc(C)cc(C)n3c2NC2CCCCC2)c1

>  <Class name>
Satisfied

$$$$
>  <Compound>
CC(=O)N1Cc2cc(C(=O)NCc3cccc(F)c3)nc(-c3cccc(C4=CCCCC4)c3)c2[C@H]1CCO

>  <Class name>
Satisfied

$$$$
>  <Compound>
C=CCn1c(SCn2nnc3ccccc3c2=O)nnc1-c1ccc(Cl)cc1

>  <Class name>
Satisfied

$$$$
>  <Compound>
CN1CCN(c2ccc([N+](=O)[O-])c(Sc3nc4ccccc4[nH]3)c2)CC1

>  <Class name>
Satisfied

$$$$

---

# Method notes: compound fluorescence in toxin protease inhibitor counterscreen, primary screen, artefact control for toxin protease inhibitor project, biochemical, multiplex microsphere, HTS (AID 624483)
# Condition summary: compound autofluorescence counterscreen, microsphere flow cytometry
Out of some 360,000 compounds screened, about 11,000 (3.1%) were called active. Another 2% or so got no clear call; they are omitted. Rule as the data show it: active = fluorescence intensity above about 16000; inconclusive = no clear call, values can overlap the other calls; inactive = below that. Many of the other results were omitted from the sample, so actives are more common in it than they were.
Classes used: 1 (yes) = active, 0 (no) = inactive

>  <Compound>
Nc1ncnc2c1ncn2[C@@H]1O[C@H](C(=O)NCC(F)(F)F)[C@@H](O)[C@H]1O

>  <Class name>
0 (no)

$$$$
>  <Compound>
CCNC(=O)C1(C)CCN(C(=O)c2ccccc2)C1 (stereo unspecified)

>  <Class name>
0 (no)

$$$$
>  <Compound>
COc1cc(Cn2c3ccc(NC(=O)CC(C)c4ccccc4)cc3c(=O)n2C)ccc1F (stereo unspecified)

>  <Class name>
0 (no)

$$$$
>  <Compound>
C=CCSc1nc(Cc2ccc(Cl)cc2)nc2ccccc12

>  <Class name>
1 (yes)

$$$$
>  <Compound>
COC(=O)[C@@]1(Cc2ccc(OC)cc2)[C@H]2c3cc(C(=O)N4CCCC4)n(Cc4ccc(OC(F)(F)F)cc4)c3C[C@H]2CN1C(=O)c1ccccc1

>  <Class name>
0 (no)

$$$$
>  <Compound>
CC(C)Cn1c(CN(Cc2ccccc2)Cc2ccccc2)nc2c1c(=O)n(C)c(=O)n2C

>  <Class name>
0 (no)

$$$$
>  <Compound>
CCCCC[C@@H]1C=C(C(=O)OCC)[C@H](c2ccccc2)N1S(=O)(=O)c1ccc(C)cc1

>  <Class name>
0 (no)

$$$$
>  <Compound>
CC(C)c1ccc(CC(=O)N2CCC2(C)C(=O)NS(=O)(=O)c2ccc(C(C)(C)C)cc2)cc1 (stereo unspecified)

>  <Class name>
0 (no)

$$$$
>  <Compound>
CCCCc1ccc(S(=O)(=O)NC(=O)C2(C)CCN2C(=O)c2ccccc2)cc1 (stereo unspecified)

>  <Class name>
0 (no)

$$$$
>  <Compound>
CC(C)C[C@@H](COCc1ccc(Cl)cc1)N1CCN(C(=O)c2ccc(Cl)cc2Cl)CCC1=O

>  <Class name>
0 (no)

$$$$
>  <Compound>
Cc1ccc(C(=O)N(CN2CCCC2=O)c2ccc(F)cc2)cc1

>  <Class name>
1 (yes)

$$$$
>  <Compound>
CCCCCC(=O)N1CCN(S(=O)(=O)c2ccc3c(c2)OCCCO3)CC1

>  <Class name>
0 (no)

$$$$
>  <Compound>
O=C(c1ccc(Cl)c([N+](=O)[O-])c1)N1CCN(c2ccccc2)CC1

>  <Class name>
0 (no)

$$$$
>  <Compound>
COC(=O)Cc1nc2c(N)nc(N)nc2[nH]c1=O

>  <Class name>
0 (no)

$$$$
>  <Compound>
CC(C)CCn1c(CN(C)Cc2ccccc2)nc2c1c(=O)n(C)c(=O)n2C

>  <Class name>
1 (yes)

$$$$
>  <Compound>
Cc1ccc(-c2nn(-c3ccccc3)cc2C(=O)NCCCN2CCCC2=O)cc1

>  <Class name>
0 (no)

$$$$
